TARGET: Histamine H3 receptor (Homo sapiens, UniProt Q9Y5N1)
Sequence (Q9Y5N1 whole entry): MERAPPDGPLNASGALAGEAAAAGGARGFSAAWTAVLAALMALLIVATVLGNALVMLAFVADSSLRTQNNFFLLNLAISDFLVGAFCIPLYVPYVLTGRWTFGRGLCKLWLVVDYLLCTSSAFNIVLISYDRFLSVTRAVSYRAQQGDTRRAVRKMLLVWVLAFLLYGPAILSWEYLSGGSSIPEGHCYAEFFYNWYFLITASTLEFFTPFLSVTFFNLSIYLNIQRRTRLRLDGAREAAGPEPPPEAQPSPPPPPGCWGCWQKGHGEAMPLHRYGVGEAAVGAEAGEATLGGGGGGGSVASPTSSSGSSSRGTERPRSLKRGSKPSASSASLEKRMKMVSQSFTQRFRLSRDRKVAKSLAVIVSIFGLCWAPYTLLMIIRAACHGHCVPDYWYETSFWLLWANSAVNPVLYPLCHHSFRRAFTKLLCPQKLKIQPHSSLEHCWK
PROCEDURE_DETAILS: Antagonist potency against human histamine H3 receptor expressed in CHO cells was determined by GTPgamma-S-assay
Assay type: functional, cell-based
pKi: −log10 of the molar value.
# pKi >= 8 gives y, anything below gives n

>>> discrete_label("O=C(CCC(=O)N1CCN(C2CCC2)CC1)c1ccc(Cl)cc1")
"y"
>>> discrete_label("CCC(CC)N1CCN(C(=O)Cc2ccc(OC(F)(F)F)cc2)CC1")
"y"
>>> discrete_label("C#CC(C)(C)N1CCN(C(=O)CCC(=O)c2ccc(Cl)cc2)CC1")
"n"
>>> discrete_label("CCC(CC)N1CCN(C(=O)Cc2ccc(C(C)=O)cc2)CC1")
"n"
>>> discrete_label("O=C(CCC(=O)N1CCN(C2CCCCCC2)CC1)c1ccc(Cl)cc1")
"n"

---

TARGET: UniProtKB Q9Y5N1
PROCEDURE_DETAILS: Antagonist potency against human histamine H3 receptor expressed in CHO cells was determined by GTPgamma-S-assay
MEASURE: log10 of Ki (log10 of the value in nM)

>>> readout_value("O=C(CCC(=O)N1CCN(CC2CC2)CC1)c1ccc(Cl)cc1")
0.92
>>> readout_value("CCC(CC)N1CCN(C(=O)CCC(=O)c2ccc(OC(F)(F)F)cc2)CC1")
0.43
>>> readout_value("CCCC(CCC)N1CCN(C(=O)CCC(=O)c2ccc(Cl)cc2)CC1")
2.68
>>> readout_value("CCC(CC)N1CCN(C(=O)Cc2ccc(C(F)(F)F)cc2)CC1")
0.36
>>> readout_value("CCC(CC)N1CCN(C(=O)c2ccc(OC(F)(F)F)cc2)CC1")
1.97
>>> readout_value("CC(C)N1CCN(C(=O)CCC(=O)c2ccc(Cl)cc2)CC1")
0.64
>>> readout_value("CCC(CC)N1CCN(C(=O)CCC(=O)c2ccc(F)cc2)CC1")
0.18
>>> readout_value("CCC(CC)N1CCN(C(=O)Cc2ccc(-c3ccccc3)cc2)CC1")
0.46
>>> readout_value("O=C(CCC(=O)N1CCN(C2CC2)CC1)c1ccc(Cl)cc1")
1.12
>>> readout_value("CCC(CC)N1CCN(C(=O)CCc2ccc(C(F)(F)F)cc2)CC1")
0.93
>>> readout_value("CCC(CC)N1CCN(C(=O)CCOc2ccc(Cl)cc2)CC1")
0.08

---

TARGET: Histamine H3 receptor (Homo sapiens)
PROCEDURE_DETAILS: Antagonist potency against human histamine H3 receptor expressed in CHO cells was determined by GTPgamma-S-assay
Listed compounds paired with reported Ki
MEASURE: Ki (nM)

>>> readout_value("CCC(CC)N1CCN(C(=O)COc2ccc(OC(F)(F)F)cc2)CC1")
110
>>> readout_value("O=C(CCC(=O)N1CCN(C2CCCCC2)CC1)c1ccc(Cl)cc1")
3.6
>>> readout_value("CCC(C)(C)N1CCN(C(=O)CCC(=O)c2ccc(Cl)cc2)CC1")
0.54
>>> readout_value("CCC(CC)N1CCN(C(=O)CCOc2ccc(C#N)cc2)CC1")
0.74
>>> readout_value("O=C(CCC(=O)N1CCN(C2CCCCCCC2)CC1)c1ccc(Cl)cc1")
450
>>> readout_value("CCC(CC)N1CCN(C(=O)Cc2ccc(N(C)C)cc2)CC1")
0.96
